Give measured Insecticidal activity against diamond back moth (%) for each item. Keep answers brief.
# Tested on: diamond back moth
# assay_remarks: Bioactivity test against diamond back moth (airbrush spray)
# Format: in vivo
# experimental_parameters: 10 mg/L
Kindly answer with a numeric value in %, unit omitted.

Let me know recorded Insecticidal activity against diamond back moth (%) for FC(F)c1ncnc(NCCc2cnn(-c3ccc(Cl)cc3Cl)c2)c1Cl , thanks.
21

Specify measured Insecticidal activity against diamond back moth (%) for Cc1ncnc(NCCc2cnn(-c3ccccc3)c2)c1Cl .
29

Fill in Insecticidal activity against diamond back moth (%) for record FC(F)c1ncnc(NCCc2cnn(-c3ccccc3)c2)c1Cl
65

Output Insecticidal activity against diamond back moth (%) of FC(F)c1ncnc(NCCc2cnn(-c3ccc(C(F)(F)F)cc3)c2)c1Cl
42

Look up and report measured Insecticidal activity against diamond back moth (%) for this entry: CCc1ncnc(NCCc2cnn(-c3ccc(Cl)cc3)c2)c1Cl.Cl
25

----------
Record form. Attribute: Insecticidal activity against peach aphid (%). Fill in for each entry.
# Test system: Green peach aphids (Myzus Persicae Sulzer)
# assay_remarks: Bioactivity test against green peach aphid (airbrush foliar spray)
# Assay type: in vivo
# experimental_parameters: 600 mg/L
The reply should contain only the number, in %.

Read the entry CCc1ncnc(NCCc2cnn(-c3ncccc3Cl)c2)c1Cl and write its reported Insecticidal activity against peach aphid (%).
100

Complete the entry with Insecticidal activity against peach aphid (%) for Cc1nc(Cl)cc(N(C)Cc2c(C)nn(-c3ccccc3)c2C)n1 [CK5, reference compound]
100

Check the records and state Insecticidal activity against peach aphid (%) for CCc1ncnc(NCCc2cnn(C(C)(C)C)c2)c1Cl
100

Output measured Insecticidal activity against peach aphid (%) for this item: CC(C)(C)n1cc(CCNc2ncnc(C(F)F)c2Cl)cn1
100

Give the value of Insecticidal activity against peach aphid (%) reported for the following: Cc1ncnc(NCCc2cnn(-c3ccc(F)cc3)c2)c1Cl
91

Entry CCc1ncnc(NCCc2cnn(-c3ccc(F)cc3)c2)c1Cl needs its Insecticidal activity against peach aphid (%) filled in; supply it.
100

Look up and report measured Insecticidal activity against peach aphid (%) for this entry: CCc1ncnc(NCCc2cnn(-c3ccc(C(F)(F)F)cc3)c2)c1Cl
100

Tell me Insecticidal activity against peach aphid (%) reported for Cc1cc(N(C)Cc2cnn(-c3ccccc3)c2)nc(C(C)C)n1 [CK4, reference compound]
0

Identify Insecticidal activity against peach aphid (%) associated with the compound FC(F)c1ncnc(NCCc2cnn(-c3ccc(Cl)cc3)c2)c1Cl
100

Output measured Insecticidal activity against peach aphid (%) for this item: Cc1nc(C)c(C)c(N(C)Cc2cnn(-c3ccccc3)c2)n1 [CK3, reference compound]
77

Provide measured Insecticidal activity against peach aphid (%) value, entry: FC(F)c1ncnc(NCCc2cnn(-c3ccc(Cl)cc3Cl)c2)c1Cl
100

Return value of Insecticidal activity against peach aphid (%) for input Fc1ccc(-n2cc(CCNc3ncnc(C(F)F)c3Cl)cn2)cc1 , no commentary.
100

Provide only the value of recorded Insecticidal activity against peach aphid (%) for CCc1ncnc(NCCc2cnn(-c3ccc(C)cc3)c2)c1Cl
92

Return value of Insecticidal activity against peach aphid (%) for input CCc1ncnc(NCc2cnn(-c3ccccc3)c2C)c1Cl [CK1, reference compound] , no commentary.
91

State its Insecticidal activity against peach aphid (%) for this compound: Cc1ncnc(NCCc2cnn(-c3c(Cl)cc(C(F)(F)F)cc3Cl)c2)c1Cl
100

Please supply the value of reported Insecticidal activity against peach aphid (%) for the item CCc1ncnc(NCc2cnn(-c3ccccc3)c2C(F)(F)F)c1Cl [CK2, reference compound]
100

In one line, give reported Insecticidal activity against peach aphid (%) of the entry FC(F)c1ncnc(NCCc2cnn(Cc3ccc(Cl)cc3)c2)c1Cl .
100

----------
# System: diamond back moth
# assay_remarks: Bioactivity test against diamond back moth (airbrush spray)
# Format: in vivo
# experimental_parameters: 100 mg/L
Would you mind telling me the reported Insecticidal activity against diamond back moth (%) of each entry?
Kindly answer with a numeric value in %, unit omitted.

Provide Insecticidal activity against diamond back moth (%), recorded with diamond back moth, of FC(F)c1ncnc(NCCc2cnn(-c3ccc(C(F)(F)F)cc3)c2)c1Cl [Compound 865]
50

Under diamond back moth: report Insecticidal activity against diamond back moth (%) of FC(F)c1ncnc(NCCc2cnn(-c3ccccc3)c2)c1Cl [Compound 797] .
85

Tell me Insecticidal activity against diamond back moth (%) of FC(F)c1ncnc(NCCc2cnn(-c3ccc(Cl)cc3Cl)c2)c1Cl [Compound 817] when tested on diamond back moth.
70

GET Insecticidal activity against diamond back moth (%) where system = diamond back moth and item = Cc1ncnc(NCCc2cnn(-c3ccccc3)c2)c1Cl [Compound 241]
71

Find Insecticidal activity against diamond back moth (%) for CCc1ncnc(NCCc2cnn(-c3ccc(Cl)cc3)c2)c1Cl.Cl [Compound 10932] on diamond back moth and write it down.
50

----------
Please provide measured control effect against cucumber anthracnose (%) for the entries that follow.
# Tested on: cucumber anthracnose
# assay_remarks: Protectant activity in vivo (whole plant), cucumber anthracnose
# experimental_parameters: 400 mg/L; protectant activity
Entry rule: numbers only, all in %.

Find control effect against cucumber anthracnose (%) for Cc1ncnc(NCCc2cnn(-c3ccc(OC(F)(F)F)cc3)c2)c1Cl [Compound 318] on cucumber anthracnose and write it down.
100

Provide the reported control effect against cucumber anthracnose (%) (system: cucumber anthracnose) for CCc1ncnc(NCCc2cnn(-c3ccc(OC(F)(F)F)cc3)c2)c1Cl [Compound 596]
100

Write down the reported control effect against cucumber anthracnose (%) (system: cucumber anthracnose) of Cc1cc(N(C)Cc2cnn(-c3ccccc3)c2)nc(C(C)C)n1 [CK4, reference compound]
0

Give control effect against cucumber anthracnose (%) only, for Cc1nc(Cl)cc(N(C)Cc2c(C)nn(-c3ccccc3)c2C)n1 [CK5, reference compound] , using cucumber anthracnose data.
0

Find the measured control effect against cucumber anthracnose (%) of CC(C)(C)n1cc(CCNc2ncnc(C(F)F)c2Cl)cn1 [Compound 38] with cucumber anthracnose as test system.
100

Supply control effect against cucumber anthracnose (%) measured with cucumber anthracnose for Cc1nc(C)c(C)c(N(C)Cc2cnn(-c3ccccc3)c2)n1 [CK3, reference compound] .
0

Give reported control effect against cucumber anthracnose (%) for FC(F)c1ncnc(NCCc2cnn(-c3ccc(OC(F)(F)F)cc3)c2)c1Cl [Compound 874] (cucumber anthracnose)
100

Find the measured control effect against cucumber anthracnose (%) of Cc1ncnc(NCCc2cnn(C(C)(C)C)c2)c1Cl [Compound 8] with cucumber anthracnose as test system.
100

----------
# Test system: cucumber anthracnose
# assay_remarks: Protectant activity in vivo (whole plant), cucumber anthracnose
# experimental_parameters: 100 mg/L; protectant activity
readout_kind: control effect against cucumber anthracnose (%)
Entry rule: numbers only, all in %.

Write control effect against cucumber anthracnose (%) of CCc1ncnc(NCCc2cnn(-c3ccc(OC(F)(F)F)cc3)c2)c1Cl ; system used: cucumber anthracnose
100

Enter recorded control effect against cucumber anthracnose (%) with cucumber anthracnose for FC(F)c1ncnc(NCCc2cnn(-c3ccc(OC(F)(F)F)cc3)c2)c1Cl here.
100

Write control effect against cucumber anthracnose (%) of CC(C)(C)n1cc(CCNc2ncnc(C(F)F)c2Cl)cn1 ; system used: cucumber anthracnose
95

Provide the reported control effect against cucumber anthracnose (%) (system: cucumber anthracnose) for Cc1ncnc(NCCc2cnn(-c3ccc(OC(F)(F)F)cc3)c2)c1Cl
100

Please tell me the measured control effect against cucumber anthracnose (%) for Cc1ncnc(NCCc2cnn(C(C)(C)C)c2)c1Cl ; system: cucumber anthracnose.
90
